Test system: HBV
Experiment: Anti-HBV activity in vitro in HepG2.2.15 cells (extracellular HBV DNA by qPCR)
Assay type: cell-based, Hepatitis B virus
Settings: Hepatitis B virus; HepG2.2.15 cells; in-house data; read-out: EC50
Measured EC50 values are reported for all entries that follow.
Write the value in nM as a bare number.

Consider the worked cases shown below.
1. COC(=O)C1=C(CN2CCO[C@H](C)[C@H]2C(=O)O)NC(c2nccs2)=N[C@H]1c1ccc(F)cc1Br :: 2.1
2. COC(=O)C1=C(CN2CCOC[C@H]2C(=O)O)NC(c2nc(C3CC3)cs2)=N[C@H]1c1ccc(F)cc1Cl :: 22
3. CCOC(=O)C1=C(CN2CCOC[C@H]2C(=O)O)NC(c2nccs2)=N[C@H]1c1ccc(F)cc1F :: 14
4. CCOC(=O)C1=C(CN2CC(F)(F)C[C@H]2C(=O)O)NC(c2nccs2)=N[C@H]1c1ccc(F)cc1Cl :: 10
5. CCOC(=O)C1=C(CN2CC(F)(F)C[C@H]2C(=O)O)NC(c2nccs2)=N[C@H]1c1cccc(F)c1F :: 14
6. COC(=O)C1=C(CN2CCOC[C@H]2C(=O)O)NC(c2ncoc2C)=N[C@H]1c1ccc(F)cc1Cl :: 14

Continue with the next compound.
Enquiry: Indicate its recorded EC50; the compound in question is `COC(=O)C1=C(CN2CCO[C@H](C)[C@H]2C(=O)O)NC(c2nccs2)=N[C@H]1c1ccccc1Br`
Return: 3
